Target: T1, recombinant mouse cold-inducible RNA-binding protein (mouse, UniProt P60824 1-172)
T1 chain: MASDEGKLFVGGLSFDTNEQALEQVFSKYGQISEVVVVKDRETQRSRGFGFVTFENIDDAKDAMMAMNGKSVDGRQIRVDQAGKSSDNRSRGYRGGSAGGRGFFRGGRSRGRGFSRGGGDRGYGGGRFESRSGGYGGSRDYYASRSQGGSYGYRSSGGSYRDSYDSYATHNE
Experiment: SPR
ASSAY READOUT: Kd (nM)
Reply with just the number (in nM).

What the record says about GNFNSSNIMKTCLQNRGD [opsonic peptide 18] : Kd is 1.5
